Origin of values: ChEMBL document CHEMBL1131379

Recorded inhibition by entry
molecular target: E-selectin (Homo sapiens); experiment: Tested in vitro for the concentration to inhibit sLex bearing HL-60 cells binding to Selectin E-IgG fusion proteins at 3 mM; type: cell-based
Expressed in %, but write only the number.

Here's what some known entries look like.
- compound: "O=C(O)Cc1cccc(-c2cc(CCCC(=O)N3CCN(C(=O)CCCc4ccc(O[C@H]5O[C@H](CO)[C@@H](O)[C@@H](O)[C@@H]5O)c(-c5cccc(CC(=O)O)c5)c4)CC3)ccc2O[C@H]2O[C@H](CO)[C@@H](O)[C@@H](O)[C@@H]2O)c1"
  inhibition / %: 0
- compound: "O=C(O)Cc1cccc(-c2cc(CCCC(=O)NCCCCC(CCCNC(=O)CCCc3ccc(O[C@H]4O[C@H](CO)[C@@H](O)[C@@H](O)[C@@H]4O)c(-c4cccc(CC(=O)O)c4)c3)CNC(=O)CCCc3ccc(O[C@H]4O[C@H](CO)[C@@H](O)[C@@H](O)[C@@H]4O)c(-c4cccc(CC(=O)O)c4)c3)ccc2O[C@H]2O[C@H](CO)[C@@H](O)[C@@H](O)[C@@H]2O)c1 (some centres undefined)"
  inhibition / %: 15
- compound: "O=C(O)Cc1cccc(-c2cc(CCCC(=O)NCCNC(=O)CCCc3ccc(O[C@H]4O[C@H](CO)[C@@H](O)[C@@H](O)[C@@H]4O)c(-c4cccc(CC(=O)O)c4)c3)ccc2O[C@H]2O[C@H](CO)[C@@H](O)[C@@H](O)[C@@H]2O)c1"
  inhibition / %: 0

Query compound follows.
According to the records, this compound O=C(O)Cc1cccc(-c2cc(CCCC(=O)N3CCCN(C(=O)CCCc4ccc(O[C@H]5O[C@H](CO)[C@@H](O)[C@@H](O)[C@@H]5O)c(-c5cccc(CC(=O)O)c5)c4)CC3)ccc2O[C@H]2O[C@H](CO)[C@@H](O)[C@@H](O)[C@@H]2O)c1 displays inhibition of 40
